Recorded measurements of pIC50, one per entry
System: 633275-114-R-J1-PDC complex spheroids, viability
METHOD: Anticancer human tumor 633275-114-R-J1-PDC patient-derived endometrial adenocarcinoma cell line growth inhibition [GQUAD]
EXPERIMENTAL CONDITIONS: curve of first compound; second compound 1 µM
pIC50: −log10 of the molar value.
PARAMETER: pIC50

- MOLECULE: "COc1cccc2c1C(=O)c1c(O)c3c(c(O)c1C2=O)CC(O)(C(=O)CO)CC3OC1CC(N)C(O)C(C)O1 (stereo not drawn) + Cc1[nH]c2ccc(F)cc2c1-c1nc2c3cccnc3c3ncccc3c2[nH]1"
  RESULT: 7.14
- MOLECULE: "CC(C)n1c(=O)n(C)c2cnc3cc(F)c(-c4ccc(OCCCN5CCCCC5)nc4)cc3c21 + CN(C)c1ccc(Nc2c3ccc(NC(=O)CCN4CCCC4)cc3nc3cc(NC(=O)CCN4CCCC4)ccc23)cc1"
  RESULT: "< 5.00"
- MOLECULE: "Cn1ncnc1[C@H]1c2n[nH]c(=O)c3cc(F)cc(c23)N[C@@H]1c1ccc(F)cc1 + Cc1cnc(CNC(=O)c2c(=O)c3ccc(N4CCCN(C)CC4)nc3n3c2sc2ccccc23)cn1"
  RESULT: "> 9.00"

---

Tested on: 633275-114-R-J1-PDC complex spheroids, viability
METHOD: Anticancer human tumor 633275-114-R-J1-PDC cell line growth inhibition [GQUAD];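 further: spheroids exposed to the agents for seven days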
EXPERIMENTAL CONDITIONS: curve of first compound; second compound 0.316 µM
pIC50: −log10 of the molar value.
PARAMETER: pIC50

- MOLECULE: "C=CC(=O)N1CCN(c2nc(=O)n(-c3c(C)ccnc3C(C)C)c3nc(-c4c(O)cccc4F)c(F)cc23)C(C)C1 (stereo not given) + Cc1cnc(CNC(=O)c2c(=O)c3ccc(N4CCCN(C)CC4)nc3n3c2sc2ccccc23)cn1"
  MODIFIER: ">"
  QUANTITATIVE READOUT: 7.50
- MOLECULE: "O=C(NO)c1cnc(N2CCN(S(=O)(=O)c3ccc4ccccc4c3)CC2)nc1 + Cc1cnc(CNC(=O)c2c(=O)c3ccc(N4CCCN(C)CC4)nc3n3c2sc2ccccc23)cn1"
  MODIFIER: ">"
  QUANTITATIVE READOUT: 7.50
- MOLECULE: "CC1COCCN1c1cc(C2(S(C)(=N)=O)CC2)nc(-c2ccnc3[nH]ccc23)n1 (stereo not given) + CN(C)c1ccc(Nc2c3ccc(NC(=O)CCN4CCCC4)cc3nc3cc(NC(=O)CCN4CCCC4)ccc23)cc1"
  MODIFIER: "="
  QUANTITATIVE READOUT: 5.42
- MOLECULE: "COc1cccc2c1C(=O)c1c(O)c3c(c(O)c1C2=O)CC(O)(C(=O)CO)CC3OC1CC(N)C(O)C(C)O1 (stereo not given) + CN(C)c1ccc(Nc2c3ccc(NC(=O)CCN4CCCC4)cc3nc3cc(NC(=O)CCN4CCCC4)ccc23)cc1"
  MODIFIER: "="
  QUANTITATIVE READOUT: 7.14
- MOLECULE: "CC(C)n1c(=O)n(C)c2cnc3cc(F)c(-c4ccc(OCCCN5CCCCC5)nc4)cc3c21 + Cc1cnc(CNC(=O)c2c(=O)c3ccc(N4CCCN(C)CC4)nc3n3c2sc2ccccc23)cn1"
  MODIFIER: ">"
  QUANTITATIVE READOUT: 7.50
- MOLECULE: "COc1cc(C2c3cc4c(cc3C(OC3OC5COC(C)OC5C(O)C3O)C3COC(=O)C23)OCO4)cc(OC)c1O (stereo not given) + Cc1[nH]c2ccc(F)cc2c1-c1nc2c3cccnc3c3ncccc3c2[nH]1"
  MODIFIER: "="
  QUANTITATIVE READOUT: 6.37
- MOLECULE: "CC1COCCN1c1cc(C2(O)CC3CCC(C2)O3)c2cnn(-c3ccn[nH]3)c2n1 (stereo not given) + Cc1cnc(CNC(=O)c2c(=O)c3ccc(N4CCCN(C)CC4)nc3n3c2sc2ccccc23)cn1"
  MODIFIER: ">"
  QUANTITATIVE READOUT: 7.50
- MOLECULE: "CC(C)n1c(=O)n(C)c2cnc3cc(F)c(-c4ccc(OCCCN5CCCCC5)nc4)cc3c21 + Cc1[nH]c2ccc(F)cc2c1-c1nc2c3cccnc3c3ncccc3c2[nH]1"
  MODIFIER: "<"
  QUANTITATIVE READOUT: 5.00
- MOLECULE: "COc1ncnc(C2CC2)c1-c1ncc2cnn(Cc3ccc(-c4nc(C(F)(F)F)cn4C(C)C)cc3)c2n1 + Cc1cnc(CNC(=O)c2c(=O)c3ccc(N4CCCN(C)CC4)nc3n3c2sc2ccccc23)cn1"
  MODIFIER: ">"
  QUANTITATIVE READOUT: 7.50
- MOLECULE: "CC1COCCN1c1cc(C2(O)CC3CCC(C2)O3)c2cnn(-c3ccn[nH]3)c2n1 (stereo not given) + CN(C)c1ccc(Nc2c3ccc(NC(=O)CCN4CCCC4)cc3nc3cc(NC(=O)CCN4CCCC4)ccc23)cc1"
  MODIFIER: "="
  QUANTITATIVE READOUT: 6.98

---

Recorded measurements of viability, T/C, one per entry
Test system: 633275-114-R-J1-PDC complex spheroids, viability
METHOD: Anticancer human tumor 633275-114-R-J1-PDC cell line growth inhibition [GQUAD];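 further: spheroids exposed to the agents for seven days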;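 on viability, T/C: percent of DMSO vehicle control viability which is 100%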
EXPERIMENTAL CONDITIONS: second compound 0.1 µM; first compound 1 µM; stronger effect = lower value

- COMPOUND: "CC(=O)O[C@H]1C(=O)[C@@]2(C)[C@H]([C@H](OC(=O)c3ccccc3)[C@]3(O)C[C@H](OC(=O)[C@H](O)[C@@H](NC(=O)c4ccccc4)c4ccccc4)C(C)=C1C3(C)C)[C@]1(OC(C)=O)CO[C@@H]1C[C@@H]2O + Cc1cnc(CNC(=O)c2c(=O)c3ccc(N4CCCN(C)CC4)nc3n3c2sc2ccccc23)cn1"
  viability, T/C, %: 35.2
- COMPOUND: "CCCS(=O)(=O)Nc1ccc(F)c(C(=O)c2c[nH]c3ncc(-c4ccc(Cl)cc4)cc23)c1F + Cc1[nH]c2ccc(F)cc2c1-c1nc2c3cccnc3c3ncccc3c2[nH]1"
  viability, T/C, %: 102
- COMPOUND: "CCCS(=O)(=O)Nc1ccc(F)c(C(=O)c2c[nH]c3ncc(-c4ccc(Cl)cc4)cc23)c1F + CN(C)c1ccc(Nc2c3ccc(NC(=O)CCN4CCCC4)cc3nc3cc(NC(=O)CCN4CCCC4)ccc23)cc1"
  viability, T/C, %: 103

---

Test system: 633275-114-R-J1-PDC complex spheroids, viability
METHOD: Anticancer human tumor 633275-114-R-J1-PDC cell line growth inhibition [GQUAD];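 further: spheroids exposed to the agents for seven days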
EXPERIMENTAL CONDITIONS: curve of first compound; second compound 0.316 µM
pIC50: −log10 of the molar value.

- COMPOUND: "CCCS(=O)(=O)Nc1ccc(F)c(C(=O)c2c[nH]c3ncc(-c4ccc(Cl)cc4)cc23)c1F + Cc1cnc(CNC(=O)c2c(=O)c3ccc(N4CCCN(C)CC4)nc3n3c2sc2ccccc23)cn1"
  TARGET SYSTEM: "633275-114-R-J1-PDC complex spheroids, viability"
  pIC50: 5.84
- COMPOUND: "Cc1cccc(N(C)C(=O)C2C(O)CCN2c2nc(C)cc(C(F)(F)F)c2C#N)c1 (stereo not drawn) + Cc1cnc(CNC(=O)c2c(=O)c3ccc(N4CCCN(C)CC4)nc3n3c2sc2ccccc23)cn1"
  TARGET SYSTEM: "633275-114-R-J1-PDC complex spheroids, viability"
  pIC50: "> 7.50"
- COMPOUND: "Nc1ccn(C2OC(CO)C(O)C2(F)F)c(=O)n1 (stereo not drawn) + Cc1[nH]c2ccc(F)cc2c1-c1nc2c3cccnc3c3ncccc3c2[nH]1"
  TARGET SYSTEM: "633275-114-R-J1-PDC complex spheroids, viability"
  pIC50: "> 7.50"

---

System: 633275-114-R-J1-PDC complex spheroids, viability
METHOD: Anticancer human tumor 633275-114-R-J1-PDC cell line growth inhibition [GQUAD];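 further: spheroids exposed to the agents for seven days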;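 on viability, T/C: percent of DMSO vehicle control viability which is 100%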
EXPERIMENTAL CONDITIONS: second compound 1 µM; first compound 3.16 µM; stronger effect = lower value
PARAMETER: viability, T/C (%)

- COMPOUND: "O=C(NO)c1cnc(N2CCN(S(=O)(=O)c3ccc4ccccc4c3)CC2)nc1 + Cc1cnc(CNC(=O)c2c(=O)c3ccc(N4CCCN(C)CC4)nc3n3c2sc2ccccc23)cn1"
  QUANTITATIVE READOUT: 3.91
- COMPOUND: "CCCS(=O)(=O)Nc1ccc(F)c(C(=O)c2c[nH]c3ncc(-c4ccc(Cl)cc4)cc23)c1F + CN(C)c1ccc(Nc2c3ccc(NC(=O)CCN4CCCC4)cc3nc3cc(NC(=O)CCN4CCCC4)ccc23)cc1"
  QUANTITATIVE READOUT: 83.9
- COMPOUND: "CC1COCCN1c1cc(C2(O)CC3CCC(C2)O3)c2cnn(-c3ccn[nH]3)c2n1 (centres undefined) + Cc1cnc(CNC(=O)c2c(=O)c3ccc(N4CCCN(C)CC4)nc3n3c2sc2ccccc23)cn1"
  QUANTITATIVE READOUT: 10.2
- COMPOUND: "COc1ncnc(C2CC2)c1-c1ncc2cnn(Cc3ccc(-c4nc(C(F)(F)F)cn4C(C)C)cc3)c2n1 + CN(C)c1ccc(Nc2c3ccc(NC(=O)CCN4CCCC4)cc3nc3cc(NC(=O)CCN4CCCC4)ccc23)cc1"
  QUANTITATIVE READOUT: 96.6
- COMPOUND: "C#Cc1c(F)ccc2cc(O)cc(-c3ncc4c(N5CC6CCC(C5)N6)nc(OCC56CCCN5CC(F)C6)nc4c3F)c12 (centres undefined) + CN(C)c1ccc(Nc2c3ccc(NC(=O)CCN4CCCC4)cc3nc3cc(NC(=O)CCN4CCCC4)ccc23)cc1"
  QUANTITATIVE READOUT: 70.6
- COMPOUND: "O=c1[nH]cc(F)c(=O)[nH]1 + Cc1cnc(CNC(=O)c2c(=O)c3ccc(N4CCCN(C)CC4)nc3n3c2sc2ccccc23)cn1"
  QUANTITATIVE READOUT: 41.2
- COMPOUND: "CC(=O)O[C@H]1C(=O)[C@@]2(C)[C@H]([C@H](OC(=O)c3ccccc3)[C@]3(O)C[C@H](OC(=O)[C@H](O)[C@@H](NC(=O)c4ccccc4)c4ccccc4)C(C)=C1C3(C)C)[C@]1(OC(C)=O)CO[C@@H]1C[C@@H]2O + Cc1[nH]c2ccc(F)cc2c1-c1nc2c3cccnc3c3ncccc3c2[nH]1"
  QUANTITATIVE READOUT: 18.2
- COMPOUND: "CC(=O)O[C@H]1C(=O)[C@@]2(C)[C@H]([C@H](OC(=O)c3ccccc3)[C@]3(O)C[C@H](OC(=O)[C@H](O)[C@@H](NC(=O)c4ccccc4)c4ccccc4)C(C)=C1C3(C)C)[C@]1(OC(C)=O)CO[C@@H]1C[C@@H]2O + CN(C)c1ccc(Nc2c3ccc(NC(=O)CCN4CCCC4)cc3nc3cc(NC(=O)CCN4CCCC4)ccc23)cc1"
  QUANTITATIVE READOUT: 22.4
- COMPOUND: "Nc1ccn(C2OC(CO)C(O)C2(F)F)c(=O)n1 (centres undefined) + Cc1cnc(CNC(=O)c2c(=O)c3ccc(N4CCCN(C)CC4)nc3n3c2sc2ccccc23)cn1"
  QUANTITATIVE READOUT: 23
